# target.of.assay: 3-hydroxy-3-methylglutaryl-coenzyme A reductase (Homo sapiens);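 further: enzyme inhibition assay of HMG-CoA reductase using radiolabeled [14C]HMG-CoA as substrate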; further: in other assays of this panel Not Active means under 50% inhibition at 10 µM
# Sequence (P04035 whole entry): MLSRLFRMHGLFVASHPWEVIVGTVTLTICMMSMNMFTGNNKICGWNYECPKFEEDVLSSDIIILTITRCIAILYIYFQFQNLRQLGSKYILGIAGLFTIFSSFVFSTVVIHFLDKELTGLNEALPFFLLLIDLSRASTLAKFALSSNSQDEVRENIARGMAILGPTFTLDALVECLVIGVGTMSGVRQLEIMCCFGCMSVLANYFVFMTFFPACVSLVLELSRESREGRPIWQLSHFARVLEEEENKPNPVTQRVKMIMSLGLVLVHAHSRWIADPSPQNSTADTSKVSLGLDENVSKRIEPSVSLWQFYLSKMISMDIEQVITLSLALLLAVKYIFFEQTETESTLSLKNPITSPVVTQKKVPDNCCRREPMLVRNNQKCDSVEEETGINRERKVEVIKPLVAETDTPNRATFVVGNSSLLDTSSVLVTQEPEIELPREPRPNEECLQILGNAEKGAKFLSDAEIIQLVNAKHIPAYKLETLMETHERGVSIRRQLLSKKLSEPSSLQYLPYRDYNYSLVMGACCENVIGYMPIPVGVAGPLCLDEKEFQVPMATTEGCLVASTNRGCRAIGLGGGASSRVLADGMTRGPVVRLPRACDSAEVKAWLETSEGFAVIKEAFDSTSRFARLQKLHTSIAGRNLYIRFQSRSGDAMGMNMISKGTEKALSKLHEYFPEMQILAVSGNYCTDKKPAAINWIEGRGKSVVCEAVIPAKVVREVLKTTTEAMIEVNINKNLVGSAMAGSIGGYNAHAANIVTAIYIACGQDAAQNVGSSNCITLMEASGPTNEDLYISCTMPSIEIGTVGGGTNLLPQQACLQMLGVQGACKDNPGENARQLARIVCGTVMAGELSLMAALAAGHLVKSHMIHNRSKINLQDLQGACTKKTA
# Design: species or system Escherichia coli
measured.endpoint: IC50

>>> df
                                   molecule  endpoint_value
0  COc1cc(C(=O)NC2CCCNC2)cc(OC)c1OC (centres undefined) [TROXIPIDE]      Not Active
1  O=C(CCCN1CCC(O)(c2ccc(Cl)cc2)CC1)c1ccc(F)cc1 [HALOPERIDOL]      Not Active
2                 Brc1ccccc1 [BROMOBENZENE]      Not Active
3  C[C@]12Cc3c[nH]nc3C[C@@H]1CC[C@@H]1[C@@H]2CC[C@@]2(C)[C@H]1CC[C@]2(C)O [STANOZOLOL]      Not Active

###

# target.of.assay: Alpha-2A adrenergic receptor (Homo sapiens, UniProt P08913); further: in other assays of this panel Not Active means under 50% inhibition at 10 µM
# Sequence (P08913 whole entry): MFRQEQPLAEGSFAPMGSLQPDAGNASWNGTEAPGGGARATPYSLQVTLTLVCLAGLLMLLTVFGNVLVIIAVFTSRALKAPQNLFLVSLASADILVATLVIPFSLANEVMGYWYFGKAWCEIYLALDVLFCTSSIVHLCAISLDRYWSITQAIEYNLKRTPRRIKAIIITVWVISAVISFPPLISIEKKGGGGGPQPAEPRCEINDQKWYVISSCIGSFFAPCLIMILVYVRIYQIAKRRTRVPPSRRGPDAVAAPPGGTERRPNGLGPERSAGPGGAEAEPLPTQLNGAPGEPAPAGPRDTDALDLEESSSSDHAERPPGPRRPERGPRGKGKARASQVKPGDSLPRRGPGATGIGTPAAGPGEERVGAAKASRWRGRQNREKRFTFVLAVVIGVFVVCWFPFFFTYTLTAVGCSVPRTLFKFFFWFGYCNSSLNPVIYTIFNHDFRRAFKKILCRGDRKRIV
# Format: cell membranes, Sf9, Membrane
# test.settings: sf9
measured.endpoint: IC50

>>> df
                             molecule  endpoint_value
0         OCc1ccccc1 [BENZYL ALCOHOL]      Not Active
1                  NCC(=O)O [GLYCINE]      Not Active
2  COC(=O)c1ccc(O)cc1 [METHYLPARABEN]      Not Active

###

# target.of.assay: Muscarinic acetylcholine receptor M5 (Homo sapiens); further: in other assays of this panel Not Active means under 50% inhibition at 10 µM
# Sequence (P08912 whole entry): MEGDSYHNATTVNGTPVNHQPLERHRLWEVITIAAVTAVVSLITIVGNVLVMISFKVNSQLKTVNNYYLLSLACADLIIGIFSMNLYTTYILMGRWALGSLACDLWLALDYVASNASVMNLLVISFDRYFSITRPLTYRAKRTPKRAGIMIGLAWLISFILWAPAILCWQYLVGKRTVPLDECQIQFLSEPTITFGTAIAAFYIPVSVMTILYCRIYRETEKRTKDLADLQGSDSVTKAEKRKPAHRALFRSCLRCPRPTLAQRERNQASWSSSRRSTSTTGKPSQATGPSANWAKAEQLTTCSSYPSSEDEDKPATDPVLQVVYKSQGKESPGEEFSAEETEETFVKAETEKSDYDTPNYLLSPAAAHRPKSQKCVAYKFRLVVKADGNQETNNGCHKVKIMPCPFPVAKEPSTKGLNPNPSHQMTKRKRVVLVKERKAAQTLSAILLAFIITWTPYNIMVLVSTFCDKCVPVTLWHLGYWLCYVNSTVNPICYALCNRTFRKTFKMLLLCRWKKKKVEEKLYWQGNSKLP
# Format: cell membranes, CHO-K1, Membrane
# test.settings: cho-k1
measured.endpoint: IC50

Use these answered entries as a reference point.
compound	IC50
NNC(=O)c1ccncc1	Not Active
O=C1OCCN1/N=C/c1ccc([N+](=O)[O-])o1	Not Active
CCCc1cc(=O)[nH]c(=S)[nH]1	Not Active
CC(C)[C@H](N)C(=O)OCCOCn1cnc2c(=O)nc(N)[nH]c21	Not Active
CCc1cccc2c3c([nH]c12)C(CC)(CC(=O)O)OCC3 (stereo unspecified)	Not Active
COc1c(N2CCNC(C)C2)c(F)cc2c(=O)c(C(=O)O)cn(C3CC3)c12 (stereo unspecified)	Not Active

Lookup: IC50 of CC1(C)[C@@H](O[C@H]2O[C@H](C(=O)O)[C@@H](O)[C@H](O)[C@H]2O[C@@H]2O[C@H](C(=O)O)[C@@H](O)[C@H](O)[C@H]2O)CC[C@]2(C)[C@H]3C(=O)C=C4[C@@H]5C[C@@](C)(C(=O)O)CC[C@]5(C)CC[C@@]4(C)[C@]3(C)CC[C@@H]12 on Muscarinic acetylcholine receptor M5 (Homo sapiens)?
Found: Not Active

Lookup: IC50 of CC1=C(/C=C/C(C)=C/C=C/C(C)=C\C(=O)O)C(C)(C)CCC1 on Muscarinic acetylcholine receptor M5 (Homo sapiens)?
Found: Not Active
